- Tested on: NCI-H322M lung
- assayProtocol: NCI-60 one-dose screen, 48 h
- conditionDetails: 10 µM unless noted
Compounds without any hit were thinned out: in the full panel of roughly 83,000, 20% have a hit. Calls of active or inactive are those of the source. How the source made its calls: active means growth percent below 10; inactive means the rest.
Tick one outcome: true (1) (active), false (0) (inactive)

Lab log entry: "c1cc(N2CCCC2)c2nc(-c3[nH]ncc3Nc3ncnc4[nH]ccc34)[nH]c2c1" — outcome as called in the assay?
true (1)

Would you kindly repeat that for "Cc1cc(N=O)cc(C(C)(C)C)c1O" ?
false (0)

Also check "COc1ccccc1-n1cnc(N)c1C(=O)c1cc(OC)c(OC)c(OC)c1"
false (0)

Proceed to "COc1ccc2nc(-c3c(-c4ccccc4)nc4ncccn34)[nH]c2c1"
false (0)

Try "CC1(C)C(=O)/C(=C\c2cccnc2)C[C@]2(C)[C@H]3CC[C@@H]4[C@@H](C(=O)/C=C/c5ccncc5)CC[C@@]4(C)[C@]3(C)CC[C@@H]12" next.
false (0)

Next compound up: "O=C(N/N=C\c1ccccc1O)C1CC1"
false (0)

Lookup "COc1cc2[nH]c(C(=O)c3cc(OC)c(OC)c(OC)c3)c(N)c2cc1C#CCO"
false (0)

Again, but for "O=C(/C=C/c1cccc2ccccc12)Nc1ncc(Cc2ccccc2)s1"
false (0)

Item: "COc1ccc(/C(=C\c2ccc3c(c2)OCO3)C(=O)Nc2nc3ccccc3s2)cc1OC"
false (0)

"C=C(C)[C@@H]1CC[C@]2(C(=O)N3CCN(CC)CC3)CC[C@]3(C)[C@H](CC[C@@H]4[C@@](C)(CCC(=O)N5CCN(CC)CC5)[C@H](C(=C)C)CC[C@]43C)[C@@H]12" ?
false (0)

Subsequent entry: "CN(C)c1ccc(N=C2C=CC(=O)C=C2)cc1"
false (0)

Next up: Nc1c2c(nc3ccc(Cl)cc13)CC(c1ccccc1)CC2=O (configuration not stated)
false (0)

// next record "C=C(C)[C@@H]1CC[C@]2(C)[C@H](CC=C3[C@@H]4CC(C)(C)CC[C@]4(C=O)CC[C@]32C)[C@@]1(C)CCCN"
false (0)

Note, next up: "C[N+](C)(CCCCCC[N+](C)(C)C1c2ccccc2-c2ccccc21)C1c2ccccc2-c2ccccc21"
false (0)

Please do the same for O=C(NC(Cc1cn(Cc2ccccc2)cn1)C(=O)O)OCC1c2ccccc2-c2ccccc21 (configuration not stated) as well.
false (0)

Repeat with "CC(=O)Oc1ccccc1C(=O)/C=C/c1cccc([N+](=O)[O-])c1"
false (0)

Continue with "Cc1cc(Cl)nc(N(CCCNc2ccnc3cc(Cl)ccc23)Cc2ccco2)n1"
false (0)

Same thing, different compound: "O=P(O)(c1ccccc1)c1ccccc1I"
false (0)

Follow-up entry: "Oc1ccccc1/C=N\NC(=S)Nc1ccc(F)cc1"
false (0)

Also "O=C1CCCC=CC[C@H]2C=C(Cl)C(=O)C2=CC[C@H](CCCCC(F)(F)F)OC(=O)CCCC=CC[C@H]2C=C(Cl)C(=O)C2=CC[C@H](CCCCC(F)(F)F)OC(=O)CCCC=CC[C@H]2C=C(Cl)C(=O)C2=CC[C@H](CCCCC(F)(F)F)O1" , if possible.
false (0)

Now give it for "Fc1cccc(-c2[nH]nc3nc(Nc4cccnc4)sc23)c1" too.
false (0)

Param item: "CCCCC[C@H]1C/C=C2/C(=O)C(Cl)=C[C@@H]2C/C=C\CCCC(=O)O[C@@H](CCCCC)C/C=C2/C(=O)C(Cl)=C[C@@H]2C/C=C\CCCC(=O)O1"
true (1)

Proceed to "Nc1c(C(=O)Nc2cccc(Cl)c2)sc2ncc(Cl)cc12"
false (0)

Field entry: CCC(c1ccc(OC)cc1)C(CC)c1ccc(O)c(CN2CCCCC2)c1 (configuration not stated)
false (0)

# repeat for "Cc1cc2nc3c4cc(Cl)ccc4n(CCN(C)C)c3nc2cc1C"
true (1)

Now the compound "Cn1cc(-c2csc(-c3cn(CCNC(=O)OC(C)(C)C)c4ccc(F)cc34)n2)c2cccnc21"
false (0)

Same lookup for NC(=O)[C@@H]1CC2CCC1C2 (some centres not stated) , please.
false (0)

Another compound to look at: "CCc1nnc(NC(=O)c2ccoc2COc2ccccc2)s1"
false (0)

Likewise for "COC1=C(Br)C(=O)C(OC)=C(Br)C1=O" ?
false (0)

Request: "O=c1c2sc3ncc(Br)cc3c2ncn1-c1cccc(Cl)c1"
false (0)

Try this compound too: "CC(=O)OC[C@]12CC[C@@H](/C(C)=N/O)[C@@H]1[C@H]1CC[C@@H]3[C@@]4(C)CCCNC(C)(C)[C@@H]4CC[C@@]3(C)[C@]1(C)CC2"
false (0)

Here is the next compound: "O=C1/C(=C\C(Cl)=C/c2ccc([N+](=O)[O-])cc2)SC(=S)N1CCc1ccc(O)cc1"
true (1)

Let us now turn to "Cn1cccc1/C=C1/SC(=S)N(CCc2ccc(O)cc2)C1=O"
false (0)

Another compound: "Cn1cc(-c2csc(-c3cn(C(=O)OC(C)(C)C)c4ccccc34)n2)c2cccnc21"
false (0)

Another: N#CC1=C(N)Oc2ccc3ccccc3c2C1c1ccccc1Cl (configuration not stated)
false (0)

Another: "COC(=O)[C@]12CC[C@@H](C)[C@H](C)[C@@H]1C1=CC(=O)[C@@H]3[C@@]4(C)C[C@@H](O)[C@H](O)[C@@]5(C)COC(=C45)C[C@@]3(C)[C@]1(C)CC2"
false (0)

Entry to check: "O=C1C(=O)N(CCCCn2cc(-c3ccccc3)nn2)c2ccccc21"
false (0)
